- Study target: ABHD6 (Mus musculus, UniProt Q8R2Y0)
- Construct: Proteomes (mouse brain membrane fraction or cell lysates); from tissue; host or cells: mouse brain membrane fraction (or cell lysates, not specified)
- Sequence (Q8R2Y0 1-336): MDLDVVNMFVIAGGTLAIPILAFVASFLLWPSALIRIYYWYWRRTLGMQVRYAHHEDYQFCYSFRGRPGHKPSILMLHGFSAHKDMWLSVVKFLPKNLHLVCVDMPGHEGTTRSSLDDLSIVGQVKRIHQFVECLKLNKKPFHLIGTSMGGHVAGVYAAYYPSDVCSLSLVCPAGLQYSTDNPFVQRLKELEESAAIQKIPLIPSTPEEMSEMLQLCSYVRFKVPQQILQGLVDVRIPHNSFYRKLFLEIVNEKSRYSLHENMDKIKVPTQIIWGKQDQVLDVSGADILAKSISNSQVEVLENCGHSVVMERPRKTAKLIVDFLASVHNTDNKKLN
- Assay details: In vitro competitive activity-based protein profiling (gel-based, FP-Rh or HT-01 probe)
- Format: biochemical
- Measurement conditions: 10 μM inhibitor; read-out: % Inhibition at 10 μM, C = ABHD6

Substance smiles: O=C(Nc1ccc2ccccc2c1)n1cccn1
inhibition at 10 µM: < 25%
//
Substance smiles: CC(=O)N(C)CCN(C)C(=O)n1cc(C#N)cn1
inhibition at 10 µM: > 75%
//
Substance smiles: O=C(N1CCCC1)n1cc(Cl)cn1
inhibition at 10 µM: < 25%
//
Substance smiles: O=C(c1cnn(C(=O)N2CCN(Cc3cncnc3)CC2)c1)N1CCCC1
inhibition at 10 µM: 25 to 75%
//
Substance smiles: Cc1ccccc1N1CCN(C(=O)n2cc(C(F)(F)F)cn2)CC1
inhibition at 10 µM: > 75%
//
Substance smiles: O=C(N1CCN(Cc2nccs2)CC1)n1cc(-c2ccccc2)cn1
inhibition at 10 µM: > 75%
//
Substance smiles: CCN(Cc1ccc(C)cc1)C(=O)n1cc(Cl)cn1
inhibition at 10 µM: > 75%
//
Substance smiles: O=C(c1cnn(C(=O)N2CCN(Cc3cccnc3)CC2)c1)N1CCC1
inhibition at 10 µM: > 75%
//
Substance smiles: O=C(N1CCN(c2ccccc2Cl)CC1)n1cc(C(F)(F)F)cn1
inhibition at 10 µM: > 75%
//
Substance smiles: O=C(N1CCCC1)n1cc(-c2ccccc2)cn1
inhibition at 10 µM: < 25%
//
Substance smiles: CC(C)c1cnn(C(=O)N2CCN(Cc3c(N4CCCC4)cccc3C(F)(F)F)CC2)c1
inhibition at 10 µM: > 75%
//
Substance smiles: COc1cc(-c2ccccc2)ccc1CN1CCN(C(=O)n2cc(C(F)(F)F)cn2)CC1
inhibition at 10 µM: > 75%
